Target: DAT (Homo sapiens)
Construct: purchased Perkin Elmer
Sequence (Q01959 whole entry): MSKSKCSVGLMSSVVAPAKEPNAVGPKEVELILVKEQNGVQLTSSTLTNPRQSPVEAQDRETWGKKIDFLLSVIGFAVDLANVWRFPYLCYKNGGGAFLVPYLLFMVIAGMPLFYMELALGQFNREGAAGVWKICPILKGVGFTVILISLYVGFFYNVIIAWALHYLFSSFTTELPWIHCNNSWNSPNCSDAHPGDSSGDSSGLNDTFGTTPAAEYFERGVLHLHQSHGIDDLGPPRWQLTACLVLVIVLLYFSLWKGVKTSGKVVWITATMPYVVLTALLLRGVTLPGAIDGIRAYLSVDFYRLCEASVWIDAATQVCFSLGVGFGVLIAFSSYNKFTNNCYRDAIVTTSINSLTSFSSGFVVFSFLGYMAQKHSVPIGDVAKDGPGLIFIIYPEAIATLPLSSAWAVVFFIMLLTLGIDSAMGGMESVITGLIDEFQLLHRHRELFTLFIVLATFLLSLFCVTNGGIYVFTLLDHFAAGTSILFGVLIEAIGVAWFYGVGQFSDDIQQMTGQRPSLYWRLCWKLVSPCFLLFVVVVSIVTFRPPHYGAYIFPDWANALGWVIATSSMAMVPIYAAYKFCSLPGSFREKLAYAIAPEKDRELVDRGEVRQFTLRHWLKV
Experiment: Dopamine Binding Assay ([3H]-WIN35,428 Binding Assay)
Details: 2 h, read-out: DAT % WIN 35428 displacement 100 nM, 100 nM test compound; NE = Not Effective
Reported inhibition at 0.1 µM by item:
measured.property: inhibition at 0.1 µM

compound	measured.property	result
CCON=CC1C2CNCC12c1ccc(Cl)c(Cl)c1 (stereo not shown)	inhibition at 0.1 µM	16.7%
CON=C(c1ccc(Cl)c(Cl)c1)C1C2CNCC21 (stereo not shown) [drawing 72]	inhibition at 0.1 µM	28.1%
CON=CC1C2CNCC12c1ccc(Cl)c(Cl)c1 (stereo not shown)	inhibition at 0.1 µM	30.6%
Clc1ccc(C23CNCC2C3C=NOCc2ccccc2)cc1Cl (stereo not shown)	inhibition at 0.1 µM	27%

###

Molecular target: NET (Homo sapiens)
Construct: purchased Perkin Elmer
Assay: Norepinephrine Binding Assay ([3H]-Nisoxetine Binding Assay)
Conditions: 1 h, read-out: NET % Nisoxetine displacement 100 nM, 100 nM test compound; NE = Not Effective
Method: 1. Norepinephrine Binding Assay The Membrane protein of 0.4 mL size vial, with protein concentration of 3.0 mg/ml was bought from Perkin Elmer, stored in −80° C. until required. [^3H]-Nisoxetine Binding Assay: […] The microtitre plates were incubated at 4° C. for 60 mins; reaction was stopped by filtration in GF/B filter plate (presoaked in 0.5% Polyethylenimine) and then added 50 μl of microscint 40. Radioactivity was measured on Liquid Scintillation counter (Perkin Elmer).
measured.property: inhibition at 0.1 µM (%)

compound	measured.property	recorded.number
CCON=C(c1ccc(Cl)c(Cl)c1)C1C2CNCC21 (centres unmarked)	inhibition at 0.1 µM	18.2
CON=C(c1ccc(Cl)c(Cl)c1)C1C2CNCC21.Cl (centres unmarked) [drawing 66]	inhibition at 0.1 µM	15.6
Clc1ccc(C23CNCC2C3C=NOCc2ccccc2)cc1Cl (centres unmarked)	inhibition at 0.1 µM	34.6
CON=C(c1ccc2ccccc2c1)C1C2CNCC21 (centres unmarked)	inhibition at 0.1 µM	21.8
CON=CC1C2CNCC12c1ccc(Cl)c(Cl)c1 (centres unmarked)	inhibition at 0.1 µM	37.4

###

Reported inhibition at 1 µM by item:
Molecular target: SERT (Homo sapiens, UniProt P31645)
Construct: purchased Perkin Elmer
Sequence (P31645 whole entry): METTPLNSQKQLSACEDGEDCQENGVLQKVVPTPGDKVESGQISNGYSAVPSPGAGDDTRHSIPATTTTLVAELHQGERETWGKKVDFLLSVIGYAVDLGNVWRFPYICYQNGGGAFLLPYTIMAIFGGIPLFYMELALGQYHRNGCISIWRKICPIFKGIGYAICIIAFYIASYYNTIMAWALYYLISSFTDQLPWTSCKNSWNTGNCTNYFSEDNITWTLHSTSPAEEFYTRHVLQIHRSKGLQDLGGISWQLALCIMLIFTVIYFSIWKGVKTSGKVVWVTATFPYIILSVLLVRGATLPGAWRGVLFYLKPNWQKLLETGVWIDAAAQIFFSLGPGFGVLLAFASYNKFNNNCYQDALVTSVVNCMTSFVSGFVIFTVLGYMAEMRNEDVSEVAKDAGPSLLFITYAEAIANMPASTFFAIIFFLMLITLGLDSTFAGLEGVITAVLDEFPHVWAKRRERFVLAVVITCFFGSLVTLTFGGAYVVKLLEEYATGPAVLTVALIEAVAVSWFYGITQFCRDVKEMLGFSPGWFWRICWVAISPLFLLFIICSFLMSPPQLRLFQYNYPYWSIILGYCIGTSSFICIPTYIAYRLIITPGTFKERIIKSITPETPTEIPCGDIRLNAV
Test: Serotonin Binding Assay ([3H]-Citalopram Binding Assay)
Details: 1 h, read-out: SERT % Citalopram displacement 1 μM, 1 μM test compound; NE = Not Effective

compound	inhibition at 1 µM (%)
CON=C(c1ccc2ccccc2c1)C1C2CNCC21 (centres unmarked)	93.4
CON=CC1C2CNCC12c1ccc(Cl)c(Cl)c1 (centres unmarked)	91.8
CON=C(c1ccccc1)C1C2CNCC21 (centres unmarked)	27.5
CON=CC1C2CNCC12c1ccc(Cl)cc1 (centres unmarked)	85.6
CON=CC1C2CNCC12c1ccccc1 (centres unmarked)	79.9
CCON=CC1C2CNCC12c1ccc(Cl)c(Cl)c1 (centres unmarked)	94.4
CON=C(c1ccc(Cl)c(Cl)c1)C1C2CNCC21.Cl (centres unmarked) [drawing 66]	84.8
ON=C(c1ccc(Cl)c(Cl)c1)C1C2CNCC21 (centres unmarked)	74.8
CCON=C(c1ccc(Cl)c(Cl)c1)C1C2CNCC21 (centres unmarked)	87.5
Clc1ccc(C23CNCC2C3C=NOCc2ccccc2)cc1Cl (centres unmarked)	89
CON=CC1C2CNCC12c1ccc(F)cc1 (centres unmarked)	85.1

###

Reported inhibition at 0.1 µM by item:
Target: SERT (Homo sapiens, UniProt P31645)
Construct: purchased Perkin Elmer
Assay: Serotonin Binding Assay ([3H]-Citalopram Binding Assay)
Settings: 1 h; 100 nM test compound; NE = Not Effective; read-out: SERT % Citalopram displacement 100 nM

compound	inhibition at 0.1 µM
C=CCON=C(c1ccc(Cl)c(Cl)c1)C1C2CNCC21 (stereo not shown)	72.6%
Clc1ccc(C(=NOCC2CC2)C2C3CNCC32)cc1Cl (stereo not shown)	69.8%
Clc1ccc(C(=NOCc2ccccc2)C2C3CNCC32)cc1Cl (stereo not shown)	30.4%
Fc1ccc(CON=CC2C3CNCC23c2ccc(Cl)c(Cl)c2)cc1 (stereo not shown)	12.5%

###

Molecular target: SERT (Homo sapiens, UniProt P31645)
Construct: purchased Perkin Elmer
Experiment: Serotonin Binding Assay ([3H]-Citalopram Binding Assay)
Settings: 1 h, read-out: SERT % Citalopram displacement 100 nM, 100 nM test compound; NE = Not Effective
Label rule, in plain words: inhibition at 0.1 µM of 40% and up is y, under 40% is n.

molecule	target.or.test.system	class.label
CON=CC1C2CNCC12c1ccc(F)cc1 (centres unmarked)	SERT (Homo sapiens, UniProt P31645)	y
CON=C(c1ccc2ccccc2c1)C1C2CNCC21 (centres unmarked)	SERT (Homo sapiens, UniProt P31645)	y
ON=C(c1ccc(Cl)c(Cl)c1)C1C2CNCC21 (centres unmarked)	SERT (Homo sapiens, UniProt P31645)	n
CON=C(c1ccccc1)C1C2CNCC21 (centres unmarked)	SERT (Homo sapiens, UniProt P31645)	n
CON=C(c1ccc(Cl)c(Cl)c1)C1C2CNCC21.Cl (centres unmarked) [drawing 66]	SERT (Homo sapiens, UniProt P31645)	y
CON=CC1C2CNCC12c1ccc(Cl)cc1 (centres unmarked)	SERT (Homo sapiens, UniProt P31645)	n
CCON=CC1C2CNCC12c1ccc(Cl)c(Cl)c1 (centres unmarked)	SERT (Homo sapiens, UniProt P31645)	y
Clc1ccc(C23CNCC2C3C=NOCc2ccccc2)cc1Cl (centres unmarked)	SERT (Homo sapiens, UniProt P31645)	n
CCON=C(c1ccc(Cl)c(Cl)c1)C1C2CNCC21 (centres unmarked)	SERT (Homo sapiens, UniProt P31645)	y
CON=CC1C2CNCC12c1ccc(Cl)c(Cl)c1 (centres unmarked)	SERT (Homo sapiens, UniProt P31645)	y

###

Biological target: NET (Homo sapiens, UniProt P23975)
Construct: purchased Perkin Elmer
Sequence (P23975 whole entry): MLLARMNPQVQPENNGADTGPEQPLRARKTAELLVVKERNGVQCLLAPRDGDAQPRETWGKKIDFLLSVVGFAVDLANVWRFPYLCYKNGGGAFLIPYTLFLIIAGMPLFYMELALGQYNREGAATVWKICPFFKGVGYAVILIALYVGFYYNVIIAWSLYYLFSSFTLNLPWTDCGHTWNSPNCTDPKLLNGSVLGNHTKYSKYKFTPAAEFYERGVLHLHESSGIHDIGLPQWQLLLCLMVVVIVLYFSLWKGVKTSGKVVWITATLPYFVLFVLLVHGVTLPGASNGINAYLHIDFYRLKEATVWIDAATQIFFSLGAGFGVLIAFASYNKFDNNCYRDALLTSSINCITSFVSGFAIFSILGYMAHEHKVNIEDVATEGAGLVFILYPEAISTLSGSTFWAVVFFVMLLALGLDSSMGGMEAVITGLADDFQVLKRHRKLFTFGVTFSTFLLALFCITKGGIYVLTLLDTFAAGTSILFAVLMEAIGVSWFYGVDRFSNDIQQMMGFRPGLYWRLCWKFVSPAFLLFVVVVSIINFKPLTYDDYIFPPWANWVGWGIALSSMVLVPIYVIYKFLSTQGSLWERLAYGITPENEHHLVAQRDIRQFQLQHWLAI
Assay: Norepinephrine Binding Assay ([3H]-Nisoxetine Binding Assay)
Conditions: 1 h; 1 μM test compound; NE = Not Effective; read-out: NET % Nisoxetine displacement 1 μM

molecule	target.or.test.system	inhibition at 1 µM / %
Clc1ccc(C(=NOc2ccccc2)C2C3CNCC32)cc1Cl (centres unmarked)	NET (Homo sapiens, UniProt P23975)	19.1
C=CCON=C(c1ccc(Cl)c(Cl)c1)C1C2CNCC21 (centres unmarked)	NET (Homo sapiens, UniProt P23975)	71.3
Fc1ccc(CON=CC2C3CNCC23c2ccc(Cl)c(Cl)c2)cc1 (centres unmarked)	NET (Homo sapiens, UniProt P23975)	74.2
Clc1ccc(C(=NOCc2ccccc2)C2C3CNCC32)cc1Cl (centres unmarked)	NET (Homo sapiens, UniProt P23975)	27.2
Clc1ccc(C(=NOCC2CC2)C2C3CNCC32)cc1Cl (centres unmarked)	NET (Homo sapiens, UniProt P23975)	33.9

###

Molecular target: NET (Homo sapiens, UniProt P23975)
Construct: purchased Perkin Elmer
Assay: Norepinephrine Binding Assay ([3H]-Nisoxetine Binding Assay)
Settings: 1 h, read-out: NET % Nisoxetine displacement 1 μM, 1 μM test compound; NE = Not Effective
Label rule, in plain words: inhibition at 1 µM of 60% and up is t, under 60% is f.

compound	target.or.test.system	class.label
CON=CC1C2CNCC12c1ccc(Cl)c(Cl)c1 (stereo not shown)	NET (Homo sapiens, UniProt P23975)	t
ON=C(c1ccc(Cl)c(Cl)c1)C1C2CNCC21 (stereo not shown)	NET (Homo sapiens, UniProt P23975)	f
Clc1ccc(C23CNCC2C3C=NOCc2ccccc2)cc1Cl (stereo not shown)	NET (Homo sapiens, UniProt P23975)	t
CON=C(c1ccc(Cl)c(Cl)c1)C1C2CNCC21.Cl (stereo not shown) [drawing 66]	NET (Homo sapiens, UniProt P23975)	t
CON=CC1C2CNCC12c1ccc(Cl)cc1 (stereo not shown)	NET (Homo sapiens, UniProt P23975)	f

###

Reported inhibition at 1 µM by item:
Biological target: DAT (Homo sapiens)
Construct: purchased Perkin Elmer
Assay: Dopamine Binding Assay ([3H]-WIN35,428 Binding Assay)
Conditions: 2 h, read-out: DAT % WIN 35428 displacement 1 μM, 1 μM test compound; NE = Not Effective
measured.property: inhibition at 1 µM (%)

compound	measured.property	measurement.units	recorded.number
ON=C(c1ccc(Cl)c(Cl)c1)C1C2CNCC21 (stereo not drawn)	inhibition at 1 µM	%	49.6
CCON=C(c1ccc(Cl)c(Cl)c1)C1C2CNCC21 (stereo not drawn)	inhibition at 1 µM	%	71
CON=CC1C2CNCC12c1ccc(Cl)cc1 (stereo not drawn)	inhibition at 1 µM	%	29.9
CCON=CC1C2CNCC12c1ccc(Cl)c(Cl)c1 (stereo not drawn)	inhibition at 1 µM	%	71.8
Clc1ccc(C23CNCC2C3C=NOCc2ccccc2)cc1Cl (stereo not drawn)	inhibition at 1 µM	%	39
CON=CC1C2CNCC12c1ccc(Cl)c(Cl)c1 (stereo not drawn)	inhibition at 1 µM	%	66.3

FYI, the data here is from patent US9133116B2.
